- experimental-target: Human V1b receptor (Homo sapiens (Human))
- Sequence (P47901 whole entry): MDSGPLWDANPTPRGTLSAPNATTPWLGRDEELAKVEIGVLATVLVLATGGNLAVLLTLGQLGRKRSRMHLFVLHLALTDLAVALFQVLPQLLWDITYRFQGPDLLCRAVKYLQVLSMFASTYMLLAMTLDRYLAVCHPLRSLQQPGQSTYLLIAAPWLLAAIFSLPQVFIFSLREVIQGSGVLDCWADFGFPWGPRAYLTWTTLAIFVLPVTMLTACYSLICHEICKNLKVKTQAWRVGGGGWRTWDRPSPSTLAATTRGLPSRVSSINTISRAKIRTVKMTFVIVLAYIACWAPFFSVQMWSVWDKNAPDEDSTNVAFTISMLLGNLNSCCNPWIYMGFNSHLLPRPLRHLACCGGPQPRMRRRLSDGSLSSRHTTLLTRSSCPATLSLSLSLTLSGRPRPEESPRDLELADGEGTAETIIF
- assay-remarks: Binding Test for V1b Receptor ([3H]AVP, crude membrane preparation of 293FT cells)
- condition-notes: inhibition of [3H]AVP binding (0.4 to 1 nmol/L), room temperature, 60 minutes
pIC50: −log10 of the molar value.
endpoint: pIC50

COc1cc(-n2nc(CC(=O)NC(C)C)n(-c3cccc(Cl)c3)c2=O)ccc1CCN1C2CCC1COC2 [Example D-23]; 8.48

[I] CC(C)NC(=O)Cn1nc(-c2ccc(CCN3CCOCC3)cn2)nc1-c1ccc(F)c(Cl)c1 [Example B-12]
[II] COc1cc(-c2nc(-c3ccc(CCN4CC(C)OC(C)C4)cc3)cn2CC(=O)NC(C)C)ccc1F (stereo not drawn) [Example A-20]
IN: Higher pIC50: I or II ? Answer format: the label of the selected item.
OUT: I
(I: 8.20, II: 7.92)

[A] CC(C)NC(=O)Cn1cc(-c2ccc(CC(C)N3CCOCC3)cc2)nc1-c1cccc(Cl)c1 (stereo not drawn) [Example A-44]
[B] CC(C)NC(=O)Cc1nn(-c2ccc(CCN3CCOCC3)cc2)c(=O)n1-c1ccc(F)c(Cl)c1 [Example D-26]
[C] CC(C)NC(=O)Cn1cc(-n2ccc(CCN3CCOCC3)cc2=O)nc1-c1cccc(Cl)c1 [Example A-45]
IN: # ascending order, key=pIC50 Provide your answer as the labels ordered per the instruction.
OUT: C, B, A
(C: 7.47, B: 8.36, A: 9.80)

Where do these numbers come from? They come from patent US9522914B2.
